- subject_of_test: hCB1 (Homo sapiens)
- assay_protocol: bioSensAll ebBRET signaling profiling, hCB1
- Type: cell-based
- Design: host or cells: HEK293SL cells, transient PEI transfection
- condition_description: Log [Compound] (M) -5.05788; single replicate values, FigS6a
Please mark yes if the recorded GoB hCB1 is equal to or greater than 10, and no if it falls below.

Solved cases below.
| compound | class_assignment |
| --- | --- |
| COC(=O)C(NC(=O)c1cc(C)n(-c2cccc(F)c2)n1)c1cccs1 (centres unmarked) | yes |
| Cn1nc(-c2nnc(C(C)(C)Oc3ccc(C(F)(F)F)cc3)o2)c2ccccc2c1=O | yes |
| CC(=O)C(c1cccs1)N(C)C(=O)c1cc(C)n(-c2cccc(C(F)(F)F)c2)n1 (centres unmarked) | yes |
| Cc1cc(C(=O)N2CC3(CCC3)[C@@H]2[C@@H]2CCCO2)nn1-c1cccc(C(F)(F)F)c1 | no |
| COC(=O)[C@@H]1[C@@H]2CCC[C@@H]2CN1C(=O)c1cc(C)n(-c2cccc(C(F)(F)F)c2)n1 | yes |

Answer whether GoB hCB1 of COc1cccc(C(NC(=O)c2cc(C)n(-c3cccc(C(F)(F)F)c3)n2)c2ccco2)c1 (centres unmarked) is greater than or equal to 10.
no

Next compound: Cc1cc(C(=O)NC(c2ccccc2)c2ccco2)nn1-c1cccc(C#N)c1 (centres unmarked)
yes

Next compound: Cc1nn(Cc2ccc(Cl)cc2)c(C)c1C(=O)OCC1CSc2ccccc2O1 (centres unmarked)
yes

----------
- subject_of_test: hCB1 (Homo sapiens, UniProt P21554)
- Sequence (P21554 whole entry): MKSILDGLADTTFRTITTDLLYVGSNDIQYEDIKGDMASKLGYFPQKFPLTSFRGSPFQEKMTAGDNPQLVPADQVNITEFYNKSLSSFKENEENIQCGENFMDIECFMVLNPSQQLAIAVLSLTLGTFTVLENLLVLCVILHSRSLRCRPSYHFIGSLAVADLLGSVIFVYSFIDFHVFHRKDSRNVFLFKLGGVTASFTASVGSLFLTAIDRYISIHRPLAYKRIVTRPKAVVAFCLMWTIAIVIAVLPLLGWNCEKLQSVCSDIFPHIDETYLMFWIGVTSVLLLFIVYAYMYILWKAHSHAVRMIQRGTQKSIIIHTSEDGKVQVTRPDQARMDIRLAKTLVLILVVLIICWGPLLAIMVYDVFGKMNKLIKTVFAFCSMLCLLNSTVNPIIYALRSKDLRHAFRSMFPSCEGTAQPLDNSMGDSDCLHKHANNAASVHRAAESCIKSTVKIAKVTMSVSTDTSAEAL
- assay_protocol: bioSensAll ebBRET signaling profiling, hCB1
- Assay type: cell-based
- Set-up: host or cells: HEK293SL cells, transient PEI transfection
- condition_description: Log [Compound] (M) -5.47381; single replicate values, FigS6a
Please mark condition met if the recorded Gi1 hCB1 is equal to or greater than 50, and condition not met if it falls below.

Solved cases below.
| molecule | class_assignment |
| --- | --- |
| Cc1cc(C(=O)NC(c2ccccc2)c2ccco2)nn1-c1cccc(C(F)(F)F)c1 (centres unmarked) | condition not met |
| Cc1cc(C(=O)NC(c2ccccc2)c2ccco2)nn1-c1cccc(C#N)c1 (centres unmarked) | condition not met |
| COC(=O)[C@@H]1[C@@H]2CCC[C@@H]2CN1C(=O)c1cc(C)n(-c2cccc(C(F)(F)F)c2)n1 | condition met |
| Cc1cc(C(=O)N(C)C(c2ccco2)c2ccco2)nn1-c1cccc(C(F)(F)F)c1 | condition not met |
| COC(=O)C(NC(=O)c1cc(C)n(-c2cccc(C(F)(F)F)c2)n1)c1cccs1 (centres unmarked) | condition met |
| CC(=O)C(c1cccs1)N(C)C(=O)c1cc(C)n(-c2cccc(C(F)(F)F)c2)n1 (centres unmarked) | condition not met |

Answer whether Gi1 hCB1 of Brc1cc2c(cc1Cc1noc(-c3cnn(CC4CC4)c3)n1)OCO2 is greater than or equal to 50.
condition not met

Next molecule: COC(=O)C(NC(=O)c1cc(C)n(-c2cccc(F)c2)n1)c1cccs1 (centres unmarked)
condition met

Next molecule: COC(=O)[C@@H]1[C@@H]2CC[C@@H]2CN1C(=O)c1cc(C)n(-c2cccc(C(F)(F)F)c2)n1
condition met

Next molecule: Cn1nc(-c2nnc(C(C)(C)Oc3ccc(C(F)(F)F)cc3)o2)c2ccccc2c1=O
condition not met
